Target: KRas Q61H mutant (Homo sapiens, UniProt P01116, Q61H)
Construct: made in house
Test: Ras GTP binding domain inhibition assay (labeled-GTP competition, cell-free)
Conditions: at 20 μM, without SOS; read-out: KRas Q61H mutant: % inh.
Listed here: items and their measured inhibition at 20 µM.

CO[C@H]1CC(Nc2nc(-c3nccn3C)nc3sc(-c4ccn(C(C)C)n4)c(C)c23)C[C@@H]1OC (racemic) [Compound 44] = 76 to 100%

Query: inhibition at 20 µM; subject: CO[C@H]1CC[C@@H](Nc2nc(C(=O)N3CCOCC3)nc3sccc23)C1 (racemic) [Compound 12] 1 to 25%

Let us now turn to COC1CCCN(c2nc(-c3nccn3C)nc3sc(-c4ccn(C(C)C)n4)c(C(F)(F)F)c23)C1 (racemic) [Compound 75] 51 to 75%

Request: Cc1c(-c2ccn(C(C)C)n2)sc2nc(-c3nccn3C)nc(NC3CCOC3)c12 (racemic) [Compound 37] 76 to 100%

For COC[C@@H]1CC[C@@H]1CNc1nc(-c2nccn2C)nc2sc(-c3ccn(C(C)C)n3)c(C)c12 (racemic) [Compound 63] then? 51 to 75%

* * *

Biological target: KRas G12C mutant (Homo sapiens, UniProt P01116, G12C)
Construct: made in house
Assay: Ras GTP binding domain inhibition assay (labeled-GTP competition, cell-free)
Settings: with SOS, read-out: KRas G12C mutant + SOS: % inh.
PROPERTY NAME: inhibition at 20 µM

Sample answers from the record:
CO[C@H]1CC[C@@H](Nc2nc(C(=O)Nc3ccccn3)nc3sccc23)C1 (racemic) = 1 to 25%
COc1cccc(Nc2nc(-c3nccn3C)nc3sc(-c4ccn(C(C)C)n4)c(C)c23)c1 = 76 to 100%
CO[C@H]1CC[C@@H](Nc2nc(-c3nccn3C)nc3sc(-c4ccn(C(C)C)n4)c(C(F)(F)F)c23)C1 (racemic) = 76 to 100%
CO[C@@H]1CC[C@@H](Nc2nc(-c3nccn3C)nc3sc(-c4ccn(C(C)C)n4)c(C)c23)C1 (racemic) = 76 to 100%

Which inhibition at 20 µM value is on record for `Cn1nccc1-c1nc(O)c2scc(-c3ccccn3)c2n1` ? 1 to 25%

Consider next the molecule `Cc1c(-c2ccn(C(C)C)n2)sc2nc(-c3nccn3C)nc(NC[C@@H]3CCC(=O)N3)c12` in the same way. 26 to 50%

Try this molecule too: `CO[C@H]1CC[C@@H](Nc2nc(-c3nccn3C)nc3sc(-c4ccn(C(C)C)n4)c(C)c23)C1` 76 to 100%

Next molecule: COC1CCCN(c2nc(-c3nccn3C)nc3sc(-c4ccn(C(C)C)n4)c(C(F)(F)F)c23)C1 (racemic) 51 to 75%

Entry `CC(C)NC(=O)c1nc(O)c2scc(-c3ccccn3)c2n1` please 26 to 50%

Lookup `Cc1c(-c2ccn(C(C)C)n2)sc2nc(-c3nccn3C)nc(NCCc3ncc[nH]3)c12` 26 to 50%

* * *

Molecular target: KRas G12D mutant (Homo sapiens, UniProt P01116, G12D)
Construct: made in house
Assay: Ras GTP binding domain inhibition assay (labeled-GTP competition, cell-free)
Settings: with SOS, read-out: KRas G12D mutant + SOS: % inh.
Source text: This is a competitive binding assay. It involves the immobilization of a protein on solid phase, interaction with a small molecule drug candidate, and then competitive binding with a labeled native GTP or GDP ligand. […] The small GTPases proteins: KRas wild type. KRas Q61H mutant, KRas G12C mutant, KRas G12D mutants, Rac-1, and Rho-A were expressed as His-tagged proteins. In addition, the Guanosine nucleotide Exchange Factor (GEF) Sos protein (residues 556-1049) was expressed as a His-tagged protein. […]
PROPERTY NAME: inhibition at 20 µM

COc1cc(Nc2nc(-c3nccn3C)nc3sc(-c4ccn(C(C)C)n4)c(C)c23)ncn1 = 51 to 75%
Cc1sc2c(O)nc(-c3ccccn3)nc2c1-c1ccccn1 = 76 to 100%
COC1CCCN(c2nc(-c3nccn3C)nc3sc(-c4ccn(C(C)C)n4)c(C)c23)C1 (racemic) = 26 to 50%

I am curious: what inhibition at 20 µM value has been reported for `Cc1c(-c2ccn(C(C)C)n2)sc2nc(-c3nccn3C)nc(NC[C@@H]3CCC(=O)N3)c12` ? 51 to 75%

Repeat for the following compound: Cc1c(-c2ccn(C(C)C)n2)sc2nc(-c3ccccn3)nc(N3CCC(COC(C)C)C3)c12 (centres unmarked) 0%

Try this compound next: Cc1c(-c2ccn(C(C)C)n2)sc2nc(-c3nccn3C)nc(N3CCC(COC(C)C)C3)c12 (racemic) 51 to 75%

Please give the result for `CO[C@H]1CC[C@@H](Nc2nc(-c3nccn3C)nc3sc(-c4ccn(C(C)C)n4)c(C)c23)CC1` too. 26 to 50%

Try COCC1CCN(c2nc(-c3nccn3C)nc3sc(-c4ccn(C(C)C)n4)c(C)c23)C1 (racemic) next. 76 to 100%

Okay, and `COCCn1ccnc1-c1nc(N[C@H]2C[C@@H](OC)C2)c2c(-c3ccccc3)c(-c3ccn(C)n3)sc2n1` ? 76 to 100%

Check `Oc1nc(-c2ccncn2)nc2c(-c3ccccn3)csc12` too. 26 to 50%

# repeat for `CC(C)NC(=O)c1nc(O)c2scc(-c3ccccn3)c2n1` 26 to 50%
